experimental_details: amyloid nucleation score (Sup35N fusion, yeast selection) (log enrichment); library NNK3; higher = more nucleation; inactive = no reads after selection;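 further: zero at mode of non-aggregating sequences after 7 days selection at 30°C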
Exercise: for every item that follows, state its recorded amyloid nucleation score.
Write no unit; give the number alone.

In: Returns the measured amyloid nucleation score for the input substance. Input: IMHIYYTYSIPLCDRRGRSY
Out: 0.856

In: Thanks! And LNRDGVISMFFSFCGGTRPR ?
Out: -0.452

In: Thanks! And TLNVFVNN ?
Out: 2.26

In: Thanks! And VRYRVIHMDTFVS ?
Out: 0.933

In: Thanks! And LMLMVCVN ?
Out: -0.601

In: Thanks! And NYFYGYQACVVHGISFTMGQ ?
Out: 0.956

In: Thanks! And CANCMNNVCVSCGCSLQLTL ?
Out: 2.89

In: Thanks! And TVCLVAITKAPRRCNSQHWD ?
Out: -0.917

In: Thanks! And FDLPCSYRCSMTYCYGVNGI ?
Out: 1.02

In: Thanks! And IAHVMYNYQHVTSCNMSSVL ?
Out: 0.726

In: Thanks! And AGFRKTMWCIQPVSFLLLKF ?
Out: 1.74

In: Thanks! And TCACIWGVSVWCYRSQVFAQ ?
Out: -0.455

In: Thanks! And YRSRLYNCFFGQFYMSLTNM ?
Out: 2.07

In: Thanks! And NSGDGSGVRFYSDNMDTYMA ?
Out: 0.185

In: Thanks! And DFRRANGEYWLTAAPMLIHT ?
Out: 0.396
